assay: Drug distribution in Sprague-Dawley rat vaginal tissue measured at 6 hrs; type: ADME, tissue-based, Vagina; details: female, read-out: Ct
reported.property: concentration at 6 h (ng/g)

>>> readout_value("CO[C@H]1/C=C/O[C@@]2(C)Oc3c(C)c(O)c4c(c3C2=O)C2=NC3(CCN(CCn5c([N+](=O)[O-])cnc5C)CC3)NC2=C(NC(=O)/C(C)=C\\C=C\\[C@H](C)[C@H](O)[C@@H](C)[C@@H](O)[C@@H](C)[C@H](OC(C)=O)[C@@H]1C)C4=O [RIFASUTENIZOL]")
2590

====

assay: Half life in C57BL/6 mouse at 20 mg/kg, po; type: ADME, organism-based; settings: in vivo
reported.property: half-life (min)

>>> readout_value("CO[C@H]1/C=C/O[C@@]2(C)Oc3c(C)c(O)c4c(c3C2=O)C2=NC3(CCN(CCn5c([N+](=O)[O-])cnc5C)CC3)NC2=C(NC(=O)/C(C)=C\\C=C\\[C@H](C)[C@H](O)[C@@H](C)[C@@H](O)[C@@H](C)[C@H](OC(C)=O)[C@@H]1C)C4=O [RIFASUTENIZOL]")
30.6
